Read-out: HGF (gene 3082)
Experiment: LTEA_HepaRG_HGF: Life Technologies and Expression Analysis (LTEA) Assay for Hepatocyte Growth Facto (HGF) using HepaRG (AID 2283505)
Settings: mRNA level, 48 h; actives raise or lower the signal
Active and inactive are the calls of the source. How the source made its calls: active means hit-call score of the fitted dose curve at least 0.9, where 1 is the maximum; inactive means score below 0.9.
Property label: outcome

| Chem smiles | Experimental value |
| --- | --- |
| CCOP(=S)(OCC)Oc1nc(Cl)c(Cl)cc1Cl | inactive |
| CCOP(=S)(OCC)SCSP(=S)(OCC)OCC | inactive |
| O=[N+]([O-])c1ccc(O)c([N+](=O)[O-])c1 | inactive |

* * *

Read-out: Peroxisomal acyl-coenzyme A oxidase 1 (ACOX1) gene, ACOX1 (gene 51)
Assay: LTEA_HepaRG_ACOX1: Life Technologies and Expression Analysis (LTEA) Assay for Peroxisomal acyl-coenzyme A oxidase 1 (ACOX1) gene using HepaRG (AID 2283467)
Settings: mRNA level, 48 h; actives raise or lower the signal
Calls of active or inactive are those of the source. How the source made its calls: active means hit-call score of the fitted dose curve at least 0.9, where 1 is the maximum; inactive means score below 0.9.
Property label: AC50

Illustrative cases are given below, each with its answer.
| Compound | Property label | Experimental value |
| --- | --- | --- |
| ClC1(Cl)C2(Cl)C3(Cl)C4(Cl)C(Cl)(Cl)C5(Cl)C3(Cl)C1(Cl)C5(Cl)C24Cl (centres undefined) | AC50 | inactive |
| ClCC(Cl)CCl | AC50 | inactive |
| Cn1sc(Cl)cc1=O | AC50 | inactive |
| CCN1CCC2(CC1)COc1cc3c(cc12)N(C(=O)c1ccc(-c2ccc(-c4nnc(C)o4)cc2C)cc1)CC3 | AC50 | 30.2 µM (active) |

Look at each compound and report its AC50.
1. CC(C)(C)c1cc(O)ccc1O
2. CC(=O)[O][Hg][c]1ccccc1
3. Oc1cccc2cccnc12
4. O=C(O)C(Cl)(Cl)Cl

Result:
inactive
15.2 µM (active)
inactive
inactive

* * *

Read-out: Bcl-2 (BID) gene, BID (gene 637)
Assay: LTEA_HepaRG_BID: Life Technologies and Expression Analysis (LTEA) Assay for Bcl-2 (BID) gene using HepaRG (AID 2283476)
Conditions: mRNA level, 48 h; actives raise or lower the signal
Procedure: LTEA_HepaRG is a cell based, multiplexed-readout assay that uses HepaRG, a human liver cell line, with measurements taken at 48 hours after chemical dosing on a 96-well plate.LTEA_HepaRG_BID is one of 102 assay component(s) measured in the LTEA HepaRG cell culture assay. It is a marker of Cell proliferation, survival, death.Data from the assay component LTEA_HepaRG_BID was analyzed into 1 endpoint. […]
Active and inactive are the calls of the source. Rule for the calls: active = hit-call score of the fitted dose curve at least 0.9, where 1 is the maximum; inactive = score below 0.9.
Allowed answers: YES = active, NO = inactive

Solved entries:
| Compound | Discrete label |
| --- | --- |
| CCN1CCC2(CC1)COc1cc3c(cc12)N(C(=O)c1ccc(-c2ccc(-c4nnc(C)o4)cc2C)cc1)CC3 | NO |
| O=C(O)C(F)(F)C(F)(F)C(F)(F)C(F)(F)C(F)(F)C(F)(F)F | NO |
| CN(C)N=O | NO |

Q: Assay result, entry CCOP(=S)(OCC)Oc1nc(Cl)c(Cl)cc1Cl — outcome?
Result: NO

Q: Assay result, entry CCCCCCCCc1ccc(O)cc1 — outcome?
Result: NO

Q: Assay result, entry CC(C)(OO)c1ccccc1 — outcome?
Result: NO

Q: Assay result, entry CCC(=O)C(CC(C)N(C)C)(c1ccccc1)c1ccccc1 (stereo not drawn) — outcome?
Result: NO

Q: Assay result, entry O=[N+]([O-])c1ccc(O)c([N+](=O)[O-])c1 — outcome?
Result: YES

Q: Assay result, entry C[C@]12CCC(=O)C[C@@H]1CC[C@@H]1[C@@H]2CC[C@]2(C)[C@@H](O)CC[C@@H]12 — outcome?
Result: NO

Q: Assay result, entry ClCC(Cl)CCl — outcome?
Result: YES

Q: Assay result, entry O=C(Nc1ccc2[nH]ccc2c1)c1cc2cc(F)ccc2n1Cc1cccc(F)c1 — outcome?
Result: NO

Q: Assay result, entry CCC(C)(C)c1ccc(O)c(C(C)(C)CC)c1 — outcome?
Result: NO

Q: Assay result, entry O=C1C2(Cl)C3(Cl)C4(Cl)C(Cl)(Cl)C5(Cl)C3(Cl)C1(Cl)C5(Cl)C24Cl (stereo not drawn) — outcome?
Result: NO

Q: Assay result, entry ClC1(Cl)C2(Cl)C3(Cl)C4(Cl)C(Cl)(Cl)C5(Cl)C3(Cl)C1(Cl)C5(Cl)C24Cl (stereo not drawn) — outcome?
Result: NO

Q: Assay result, entry NC(=O)O — outcome?
Result: NO

Q: Assay result, entry C=CC(=O)OCCCCCC(C)C — outcome?
Result: NO

Q: Assay result, entry CC(C)(c1ccccc1)c1ccc(O)c(C(C)(C)c2ccccc2)c1 — outcome?
Result: NO

Q: Assay result, entry C[C@@H]1C[C@@H]([C@H](O)CC2CC(=O)NC(=O)C2)C(=O)[C@@H](C)C1 — outcome?
Result: YES

Q: Assay result, entry CC12CC1(C)C(=O)N(c1cc(Cl)cc(Cl)c1)C2=O (stereo not drawn) — outcome?
Result: NO
